# System: GCaMP5-expressing T. gondii
# Construct: whole extracellular parasites expressing GCaMP5 Ca2+ sensor
# Set-up: species or system GCaMP5-expressing Toxoplasma gondii, extracellular; GCaMP5 fluorescence (cytosolic Ca2+) after 100 uM zaprinast in compound-pretreated extracellular parasites, background-subtracted, relative to zaprinast alone
# conditions: 100 uM zaprinast stimulation; 10 min pretreatment; mean of two replicates; 0.23 h
property.label: fold change in fluorescence relative to zaprinast alone

INSERT INTO measurements (molecule, number) VALUES
  ('COc1cc(C2=NC(c3ccc(Cl)cc3F)C(C(=O)Nc3ccc4[nH]ncc4c3)=C(C)N2)ccn1 (centres unmarked) [GSK534911A]', 1.41),
  ('COC(=O)c1cccc(NC(=O)NC2CCN(c3ccnc(Nc4ccc(F)cc4)n3)C2)c1 (centres unmarked) [GSK1379725A]', 0.2001),
  ('Clc1ccc(-c2nn3ncccc3c2-c2ccnc(Nc3ccccc3)n2)cc1 [GW829055X]', 1.188),
  ('COc1ccc(C2=C(Nc3cccc(C(=O)O)c3)C(=O)NC2=O)cc1', 0.6431),
  ('C[C@@H](Oc1cc(-n2cnc3ccc(OC4CCN(C)CC4)cc32)sc1C(N)=O)c1ccccc1Cl [GSK579289A]', 0.9541),
  ('Nc1nccc(-c2c(-c3ccc(F)cc3)ncn2C2CCC(O)CC2)n1 (centres unmarked)', 0.9972),
  ('Nc1nc(-c2ccc3c(c2)C(=Cc2cc(Br)c(O)c(Br)c2)C(=O)N3)cs1', 0.1475),
  ('Fc1cccc(COc2ccc(Nc3ncnc4sc(-c5cccs5)cc34)cc2Cl)c1 [GW684626B]', 0.9792);

----------
Quick reference: fold change in fluorescence relative to zaprinast alone of the listed items.
# Test system: GCaMP5-expressing T. gondii
# Construct: whole extracellular parasites expressing GCaMP5 Ca2+ sensor
# Design: species or system GCaMP5-expressing Toxoplasma gondii, extracellular; GCaMP5 fluorescence (cytosolic Ca2+) after 100 uM zaprinast in compound-pretreated extracellular parasites, background-subtracted, relative to zaprinast alone
# conditions: 100 uM zaprinast stimulation; 10 min pretreatment; mean of two replicates; 0.23 h
property.label: fold change in fluorescence relative to zaprinast alone

INSERT INTO assay_data (molecule, number) VALUES
  ('Cc1c(Cn2c3ccccc3n3c(=O)cc(N4CCOCC4)nc23)cccc1C(F)(F)F [GSK2306394A]', 0.7248),
  ('COc1cc2ncn(-c3cc(O[C@H](C)c4ccccc4Cl)c(C(N)=O)s3)c2cc1OC [GSK237701A]', 0.7907),
  ('COc1ccc(Nc2ncc(-c3ccccc3)o2)cc1OC [GW575533A]', 1.197),
  ('O=C(NCCCN1CCOCC1)c1cccc(Nc2nccc(Nc3ccc(Oc4ccccc4)cc3)n2)c1 [GW663929X]', 1.429),
  ('COC(=O)c1cccc(NC(=O)NCCNc2ccnc(Nc3ccc(F)cc3)n2)c1 [GSK1379883A]', 0.8839),
  ('CNC(=O)c1ccccc1Nc1nc(Nc2ccc(N3CCOCC3)cc2)ncc1Cl [GSK1576028A]', 1.198),
  ('CCCC(=O)Nc1[nH]nc2ncc(-c3cccc4ccccc34)cc12', 0.9221),
  ('NC(=O)c1cccc(Nc2nccc(Nc3cccc(F)c3)n2)c1 [GW759710A]', 1.166),
  ('Nc1nccc(-c2ccc3c(N)n[nH]c3c2)n1 [GSK1034945A]', 1.107),
  ('c1ccc(Cn2cnc3cc(Nc4ncnc5ccccc45)ccc32)cc1 [GW272142A]', 1.177),
  ('CCCNc1cccc(-n2ncc3c(N/N=C/c4ccncc4)ncnc32)c1 [GW794607X]', 0.688),
  ('CN(C)CCOc1ccc(-c2cc(-c3ccc(Cl)c(O)c3)c(-c3ccncc3)[nH]2)cc1', 0.6076),
  ('COc1cc(Nc2nccc(N3CCC(NC(=O)c4cc5ccccc5s4)C3)n2)cc(OC)c1OC (stereo not drawn) [GSK1379760A]', 1.279),
  ('Cc1nc(-c2ccccc2)n2nc(NCCCN3CCOCC3)ncc12 [GW874091X]', 1.267),
  ('Cc1ccc(O)cc1Nc1ccnc2cc(-c3ccc(CN4CCCCC4)o3)ccc12 [GW557777X]', 0.8105),
  ('CCn1c(-c2nonc2N)nc2c(N3CCCC3)nccc21', 0.961),
  ('C=CC(=O)Nc1cc2c(Nc3ccc(F)c(Cl)c3)ncnc2cc1OCCCN1CCOCC1 [GW781483X]', 1.29),
  ('CCn1c(-c2nonc2N)nc2cnc(Oc3cccc(NC(=O)c4ccc(OCCN5CCOCC5)cc4)c3)cc21 [GSK269962B]', 1.303);

----------
# Tested on: GCaMP5-expressing T. gondii
# Construct: whole extracellular parasites expressing GCaMP5 Ca2+ sensor
# Design: species or system GCaMP5-expressing Toxoplasma gondii, extracellular; GCaMP5 fluorescence (cytosolic Ca2+) after 100 uM zaprinast in compound-pretreated extracellular parasites, background-subtracted, relative to zaprinast alone
# conditions: 100 uM zaprinast stimulation; 10 min pretreatment; mean of two replicates; 0.23 h
# Protocol: GCaMP5-expressing parasites were suspended in Ringer's solution at 4 × 10^7 parasites/ml, and 50 μl of parasites were applied to each well of a 96-well plate (Costar, catalog no. 3631). […] Parasites were then treated with 100 μM zaprinast or 0.1% DMSO as a vehicle control and incubated at 37 °C with 5% CO2 for an additional 4 min before measuring fluorescence with excitation and emission wavelengths of 485 and 525 nm, respectively, on a SpectraMax M3 (Molecular Devices). […]
Decision: fold change in fluorescence relative to zaprinast alone compared against 1; not below it gives YES, below it gives NO.

INSERT INTO assay_data (compound, class_name) VALUES
  ('COc1ccc(Nc2nccc(N3CCC(NC(=O)Nc4ccc5c(c4)OCO5)C3)n2)cc1 (stereo not drawn) [GSK1379745A]', 'YES'),
  ('FC(F)(F)c1ccc(-c2nn3ncccc3c2-c2ccnc(Nc3ccccc3)n2)cc1 [GW828206X]', 'NO'),
  ('Cc1ccccc1-n1cnc2c(N)ncnc21 [SKF-97510]', 'YES'),
  ('CNC(=O)c1ccccc1Nc1nc(Nc2cccc(CS(C)(=O)=O)c2)ncc1C [GSK1520489A]', 'YES'),
  ('COc1ccc2ncnc(Nc3ccc(OCc4ccccc4)cc3)c2c1 [GI261520A]', 'NO'),
  ('O=c1cc(N2CCOCC2)nc2n(Cc3cccc(Cl)c3Cl)c3ccccc3n12 [GSK2299009A]', 'YES'),
  ('COc1cccc(-c2cc(-c3cn[nH]c3-c3ccccn3)ccn2)c1 [GW680338X]', 'NO'),
  ('Nc1nc(-c2ccc(F)cc2)c(-c2ccc3ncccc3n2)s1 [GW785804X]', 'YES'),
  ('CN(c1ccc(NC(=O)Nc2c(Cl)cccc2Cl)cc1)c1ccnc(Nc2cccc(CS(C)(=O)=O)c2)n1 [GW809897X]', 'YES');

----------
# Test system: GCaMP5-expressing T. gondii
# Construct: whole extracellular parasites expressing GCaMP5 Ca2+ sensor
# Parameters: species or system GCaMP5-expressing Toxoplasma gondii, extracellular; GCaMP5 fluorescence (cytosolic Ca2+) after 100 uM zaprinast in compound-pretreated extracellular parasites, background-subtracted, relative to zaprinast alone
# conditions: 100 uM zaprinast stimulation; 10 min pretreatment; mean of two replicates; 0.23 h
property.label: fold change in fluorescence relative to zaprinast alone

INSERT INTO measurements (compound, number) VALUES
  ('O=C(Nc1n[nH]c2cc(-c3ccoc3)ccc12)C1CC1', 1.2),
  ('COc1cccc(C2=C(Nc3cccc(C(=O)O)c3)C(=O)NC2=O)c1', 0.98),
  ('CNC(=O)c1cncc(/C=C/c2c(Cl)cccc2Cl)c1 [GW445014X]', 1.122),
  ('CCCCc1nn2ncccc2c1-c1ccnc(Nc2ccc(N3CCN(C)CC3)cc2)n1 [GW684941X]', 0.4893),
  ('COc1cc(/C=N/Nc2ncnc3[nH]ncc23)ccc1O [GW578748X]', 0.8277),
  ('CS(=O)(=O)CCNCc1cc(-c2cc3c(Nc4ccc(OCc5cccc(F)c5)c(Cl)c4)ncnc3s2)cs1 [GSK300014A]', 1.033),
  ('CCOc1ccc2c(-c3ccnc(Nc4cc(OC)cc(C(F)(F)F)c4)n3)cnn2n1 [GW807982X]', 0.9255),
  ('O=S(=O)(CCOCc1ccc(-c2ccc3ncnc(Nc4ccc(OCc5cccc(F)c5)c(Cl)c4)c3c2)o1)c1ccccc1 [GW615311X]', 1.258),
  ('COc1cccc(-n2cnc3c(N/N=C/c4ccncc4)ncnc32)c1 [GW813360X]', 1.13),
  ('CN(C)c1cc2c(Nc3ccc4nc(Cc5ccccc5)[nH]c4c3)ncnc2cn1 [GW301888X]', 1.125),
  ('Cc1ccc(O)cc1Nc1ccnc2ccc(S(C)(=O)=O)cc12 [GW559768X]', 1.199),
  ('FC(F)(F)c1ccccc1-c1cc(-c2cn[nH]c2-c2ccccn2)ccn1 [GW679396X]', 0.8259),
  ('Oc1cccc(Nc2ccnc3cc(-c4ccncc4)ccc23)c1 [GW494601A]', 1.032),
  ('N#Cc1ccc(CCNc2nccc(-c3cccc(CN4CCNCC4)c3)n2)cc1 [GSK2137462A]', 0.3754),
  ('CCNCC(Cc1ccccc1)NC(=O)c1cc(Br)c(-c2ccnc3[nH]ccc23)s1 (stereo not drawn) [GSK1383280A]', 0.5995),
  ('O=C1Nc2ccccc2C1=C1CCc2cc(O)ccc21 [GR105659X]', 1.22),
  ('CCn1c(-c2nonc2N)nc2ccncc21', 1.114),
  ('CS(=O)(=O)CCNCc1nc(-c2ccc3ncnc(Nc4ccc(OCc5cccc(C(F)(F)F)c5)cc4)c3c2)cs1 [GW569530A]', 1.148),
  ('CS(=O)(=O)c1ccc(-c2nc3n(c2-c2ccncc2)CCC3)cc1', 0.9941),
  ('COC(=O)Nc1nc2ccc(Oc3ccc(NC(=O)Nc4cc(F)ccc4F)cc3)cc2[nH]1 [GW701424A]', 1.084),
  ('CCN(CC)Cc1ccc(Nc2nccc(-c3cnn4ncccc34)n2)cc1 [GW780056X]', 0.8961),
  ('c1ccc(-c2[nH]ncc2-c2ccnc(-c3ccc(CN4CCOCC4)cc3)c2)nc1 [GW776245A]', 1.036),
  ('CS(=O)(=O)CCN(CC#N)Cc1ccc(-c2ccc3ncnc(Nc4ccc(OCc5cccc(F)c5)c(Cl)c4)c3c2)o1 [GW616030X]', 1.169),
  ('CC(=O)N1CCN(c2ccc(Nc3nccc(-c4sc(C(C)C)nc4-c4cccc(NS(=O)(=O)c5cccc(Cl)c5)c4)n3)cn2)CC1 [GSK1660437A]', 1.275),
  ('O=C(Nc1ccc(Oc2ccc3[nH]c(NC(=O)c4ccco4)nc3c2)cc1)Nc1cc(C(F)(F)F)ccc1F [GW683134A]', 1.019),
  ('Fc1ccc(-c2ncn(CCCN3CCOCC3)c2-c2cccnc2)cc1', 1.228),
  ('CCn1c(-c2ccccc2)nc2cnccc21', 1.146),
  ('Cc1cccc(Nc2ncc(-c3ccccc3)o2)c1 [GW632046X]', 1.202),
  ('O=C(Nc1n[nH]c2cc(-c3ccco3)ccc12)C1CC1', 1.13),
  ('O=C(Nc1n[nH]c2nc(-c3ccc(O)cc3)c(Br)cc12)C1CC1', 1.144),
  ('Oc1ccc(-c2nc(-c3ccccc3)[nH]c2-c2ccncc2)cc1', 1.23),
  ('CN(C)CCCn1c(-c2nonc2N)nc2cnccc21', 1.355),
  ('c1ccc(-c2[nH]ncc2Nc2ccnc3ccccc23)nc1 [GW694077X]', 1.237),
  ('CN(C)CCCC(=O)Nc1n[nH]c2nnc(-c3ccccc3)cc12', 1.028),
  ('Cc1ccc(C(=O)NC2CCCCC2)cc1-c1ccc(C(=O)NCC2CC2)cc1 [GW782907X]', 1.25),
  ('COc1cc(Nc2nccc(N3CCC(NS(=O)(=O)c4ccc(NC(C)=O)cc4)CC3)n2)cc(OC)c1OC [GSK1379825A]', 1.055);

Reference for the values: paper PMC4850295
